I'd be grateful if you could share measured 4. + IFNG mix for these entries.
- Tested on: proteins that co-immunoprecipitated with DUX4-CTD constructs expressed in MB135 myoblasts
- Measurement Description: LC-MS of proteins co-immunoprecipitated with DUX4-CTD (Table 1) and western validation
- Format: binding, human
- Parameters: key: peptide-spectrum matches (PSMs) per protein
- Measurement Context: LC-MS value per protein co-immunoprecipitated from MB135 myoblasts; + IFNG mix sample (no Dox); kind of count not given
Give bare numbers.

CFL1 (protein) MVSPGHGHLRERKELTPHSTNPAAARIWDATYSDGYVRPASGVAVSDGVIKVFNDMKVRKSSTPEEVKKRKKAVLFCLSEDKKNIILEEGKEILVGDVGQTVDDPYATFVKMLPDKDCRYALYDATYETKESKKEDLVFIFWAPESAPLKSKMIYASSKDAIKKKLTGIKHELQANCYEEVKDRCTLAEKLGGSAVISLEGKPL: 1

Which 4. + IFNG mix is listed for GNAI2 (protein) GCTVSAEDKAAAERSKMIDKNLREDGEKAAREVKLLLLGAGESGKSTIVKQMKIIHEDGYSEEECRQYRAVVYSNTIQSIMAIVKAMGNLQIDFADPSRADDARQLFALSCTAEEQGVLPDDLSGVIRRLWADHGVQACFGRSREYQLNDSAAYYLNDLERIAQSDYIPTQQDVLRTRVKTTGIVETHFTFKDLHFKMFDVGGQRSERKKWIHCFEGVTAIIFCVALSAYDLVLAEDEEMNRMHESMKLFDSICNNKWFTDTSIILFLNKKDLFEEKITHSPLTICFPEYTGANKYDEAASYIQSKFEDLNKRKDTKEIYTHFTCATDTKNVQFVFDAVTDVIIKNNLKDCGLF ? 7
